ASSAYED SYSTEM: Kv1.3 (Homo sapiens, UniProt P22001)
Sequence (P22001 whole entry): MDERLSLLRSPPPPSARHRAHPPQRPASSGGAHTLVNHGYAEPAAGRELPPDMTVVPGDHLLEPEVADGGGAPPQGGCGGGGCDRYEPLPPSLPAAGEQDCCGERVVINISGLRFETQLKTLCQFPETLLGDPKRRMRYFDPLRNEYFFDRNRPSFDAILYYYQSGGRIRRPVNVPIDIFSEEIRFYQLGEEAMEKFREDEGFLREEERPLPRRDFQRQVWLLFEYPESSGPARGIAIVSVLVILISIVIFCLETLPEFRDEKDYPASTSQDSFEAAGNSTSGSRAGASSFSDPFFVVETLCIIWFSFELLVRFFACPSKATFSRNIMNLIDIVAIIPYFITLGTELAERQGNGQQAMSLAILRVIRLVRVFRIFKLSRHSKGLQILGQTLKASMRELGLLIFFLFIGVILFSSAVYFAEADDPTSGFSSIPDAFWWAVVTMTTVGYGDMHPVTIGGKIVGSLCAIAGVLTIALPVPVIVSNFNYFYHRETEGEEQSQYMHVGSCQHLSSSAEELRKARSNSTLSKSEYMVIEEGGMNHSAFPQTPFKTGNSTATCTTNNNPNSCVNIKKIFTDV
MEASUREMENT DESCRIPTION: Kv1.3 channel block, estimated Kd (Table 1)
Type: binding
ASSAY CONDITIONS: Kv1.3, end; read-out: Est. Kd, Kd end
MEASUREMENT TYPE: Kd (µM)

Use the examples below as a reference point.
Asked: What value of Kd has been reported for the following compound? COc1c(C(=O)/C=C/c2ccccc2F)c(O)c(OC)c2occc12
Given back: 12

Asked: What value of Kd has been reported for the following compound? COc1c(C(=O)/C=C/c2ccccc2O)c(O)c(OC)c2occc12
Given back: 8

1. COc1c(C(=O)/C=C/c2cccnc2)c(O)c(OC)c2occc12
2. COc1c(C(=O)/C=C/c2ccc3c(c2)OCO3)c(O)c(OC)c2occc12
Asked: Hi, I'm comparing two records. Which one has the lower Kd, 1 or 2 ? Respond with the label that goes with your answer.
Given back: 2
